These entries and their values trace back to paper PMC6407917.

# Target: MARK1 (Homo sapiens, UniProt Q9P0L2)
# Sequence (Q9P0L2 whole entry): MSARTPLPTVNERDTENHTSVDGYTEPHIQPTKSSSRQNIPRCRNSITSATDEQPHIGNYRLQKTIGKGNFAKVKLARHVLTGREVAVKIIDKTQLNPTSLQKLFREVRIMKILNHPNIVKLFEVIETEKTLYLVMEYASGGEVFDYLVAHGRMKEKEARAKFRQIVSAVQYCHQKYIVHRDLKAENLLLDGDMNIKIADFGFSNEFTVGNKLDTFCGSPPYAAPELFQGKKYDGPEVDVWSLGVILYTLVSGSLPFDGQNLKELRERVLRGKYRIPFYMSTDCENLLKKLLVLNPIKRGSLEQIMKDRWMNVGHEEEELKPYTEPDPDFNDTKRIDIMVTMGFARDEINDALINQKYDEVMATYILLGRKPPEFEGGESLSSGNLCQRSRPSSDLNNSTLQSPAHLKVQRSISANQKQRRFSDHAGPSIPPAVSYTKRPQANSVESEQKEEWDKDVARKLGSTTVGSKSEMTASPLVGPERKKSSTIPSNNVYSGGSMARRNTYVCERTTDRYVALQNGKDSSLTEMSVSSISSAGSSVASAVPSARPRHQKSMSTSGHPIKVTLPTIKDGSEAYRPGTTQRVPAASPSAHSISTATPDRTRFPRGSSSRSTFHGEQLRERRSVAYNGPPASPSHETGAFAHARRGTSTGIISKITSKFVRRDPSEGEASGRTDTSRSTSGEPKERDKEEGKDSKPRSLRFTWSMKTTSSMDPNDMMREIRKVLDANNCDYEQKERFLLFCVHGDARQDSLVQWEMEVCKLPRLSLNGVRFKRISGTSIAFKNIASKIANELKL
# Test Method Notes: biochemical
# Set-up: species or system HEK293/K-562/placenta mixed human extract; Kinobeads chemoproteomic competition binding, quantified by TMT LC-MS/MS, dose response up to 20 uM
Property Name: IC50

[Q] Looking for the measured IC50 of "COc1nc(N[C@H]2CC[C@H](NS(=O)(=O)CC(C)C)CC2)nc2[nH]nc(N3CCOC[C@H]3C)c12" , can you help?
[A] ≥ 20 µM

###

# Target: TESK2 (Homo sapiens)
# Sequence (Q96S53 whole entry): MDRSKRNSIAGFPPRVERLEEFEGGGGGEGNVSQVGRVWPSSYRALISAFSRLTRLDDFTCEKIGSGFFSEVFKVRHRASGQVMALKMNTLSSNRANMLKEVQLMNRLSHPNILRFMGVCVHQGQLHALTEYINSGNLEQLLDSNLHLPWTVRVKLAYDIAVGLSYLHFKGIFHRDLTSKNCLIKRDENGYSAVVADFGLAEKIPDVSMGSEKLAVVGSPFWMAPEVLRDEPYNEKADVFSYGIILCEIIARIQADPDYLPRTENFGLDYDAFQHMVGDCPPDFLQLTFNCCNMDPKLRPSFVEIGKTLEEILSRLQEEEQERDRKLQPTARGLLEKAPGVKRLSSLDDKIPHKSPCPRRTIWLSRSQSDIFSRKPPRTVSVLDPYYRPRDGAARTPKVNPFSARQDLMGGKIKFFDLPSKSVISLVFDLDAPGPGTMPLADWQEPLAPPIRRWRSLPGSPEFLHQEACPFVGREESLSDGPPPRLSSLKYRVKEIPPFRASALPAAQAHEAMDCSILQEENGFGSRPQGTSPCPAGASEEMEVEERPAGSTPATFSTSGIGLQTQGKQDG
# Test Method Notes: biochemical
# Parameters: species or system HEK293/K-562/placenta mixed human extract; Kinobeads chemoproteomic competition binding, quantified by TMT LC-MS/MS, dose response up to 20 uM
pIC50: −log10 of the molar value.
Property Name: pIC50

[Q] Looking for the measured pIC50 of "COc1ccccc1-c1n[nH]c2nc(N[C@H]3CC[C@H](NS(=O)(=O)CCC(F)(F)F)CC3)nc(OC)c12" , can you help?
[A] ≤ 4.70

###

# Target: GSK3A (Homo sapiens, UniProt P49840)
# Sequence (P49840 whole entry): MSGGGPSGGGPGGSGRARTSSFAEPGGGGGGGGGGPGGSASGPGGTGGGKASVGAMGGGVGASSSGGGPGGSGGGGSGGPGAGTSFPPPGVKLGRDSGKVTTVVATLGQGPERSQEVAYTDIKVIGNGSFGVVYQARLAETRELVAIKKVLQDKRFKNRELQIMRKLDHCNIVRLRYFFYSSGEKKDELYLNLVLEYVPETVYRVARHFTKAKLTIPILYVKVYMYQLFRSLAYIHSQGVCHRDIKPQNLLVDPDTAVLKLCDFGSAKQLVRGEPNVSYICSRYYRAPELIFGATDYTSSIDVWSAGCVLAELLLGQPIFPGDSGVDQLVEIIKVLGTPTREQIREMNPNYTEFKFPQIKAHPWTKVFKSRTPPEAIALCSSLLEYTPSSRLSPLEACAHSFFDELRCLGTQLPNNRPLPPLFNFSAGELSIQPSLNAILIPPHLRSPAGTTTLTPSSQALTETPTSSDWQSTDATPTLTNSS
# Test Method Notes: biochemical
# Set-up: species or system HEK293/K-562/placenta mixed human extract; Kinobeads chemoproteomic competition binding, quantified by TMT LC-MS/MS, dose response up to 20 uM
pIC50: −log10 of the molar value.
Property Name: pIC50

[Q] Tell me reported pIC50 for COc1nc(N[C@H]2CC[C@H](NS(=O)(=O)CC(C)C)CC2)nc2[nH]nc(N3CCOC[C@H]3C)c12 [compound 39] , tested with GSK3A (Homo sapiens, UniProt P49840).
[A] ≤ 4.70

###

# Target: LIMK1 (Homo sapiens)
# Sequence (P53667 whole entry): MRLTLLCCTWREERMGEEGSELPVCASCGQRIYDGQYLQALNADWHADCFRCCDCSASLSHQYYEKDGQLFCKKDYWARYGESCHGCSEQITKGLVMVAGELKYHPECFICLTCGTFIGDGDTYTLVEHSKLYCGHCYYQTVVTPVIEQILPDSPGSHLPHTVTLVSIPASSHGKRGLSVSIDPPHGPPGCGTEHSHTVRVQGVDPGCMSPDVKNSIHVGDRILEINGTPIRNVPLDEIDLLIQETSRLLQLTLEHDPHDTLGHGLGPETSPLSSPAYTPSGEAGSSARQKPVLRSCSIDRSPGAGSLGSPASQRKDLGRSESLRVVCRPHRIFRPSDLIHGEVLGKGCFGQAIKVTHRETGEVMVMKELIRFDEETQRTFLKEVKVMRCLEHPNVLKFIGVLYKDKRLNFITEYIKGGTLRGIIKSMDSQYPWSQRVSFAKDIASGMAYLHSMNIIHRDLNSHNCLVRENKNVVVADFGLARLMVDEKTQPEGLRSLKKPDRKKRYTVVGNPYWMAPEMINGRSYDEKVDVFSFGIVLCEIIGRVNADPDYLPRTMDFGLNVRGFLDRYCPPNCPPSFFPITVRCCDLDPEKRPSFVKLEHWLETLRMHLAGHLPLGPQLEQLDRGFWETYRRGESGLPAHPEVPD
# Test Method Notes: biochemical
# Set-up: species or system HEK293/K-562/placenta mixed human extract; Kinobeads chemoproteomic competition binding, quantified by TMT LC-MS/MS, dose response up to 20 uM
pIC50: −log10 of the molar value.
Property Name: pIC50

[Q] Looking for the measured pIC50 of "COc1ccccc1-c1n[nH]c2nc(N[C@H]3CC[C@H](NS(=O)(=O)CCC(F)(F)F)CC3)nc(OC)c12" , can you help?
[A] ≤ 4.70

###

# Target: UniProt P33981
# Sequence (P33981 whole entry): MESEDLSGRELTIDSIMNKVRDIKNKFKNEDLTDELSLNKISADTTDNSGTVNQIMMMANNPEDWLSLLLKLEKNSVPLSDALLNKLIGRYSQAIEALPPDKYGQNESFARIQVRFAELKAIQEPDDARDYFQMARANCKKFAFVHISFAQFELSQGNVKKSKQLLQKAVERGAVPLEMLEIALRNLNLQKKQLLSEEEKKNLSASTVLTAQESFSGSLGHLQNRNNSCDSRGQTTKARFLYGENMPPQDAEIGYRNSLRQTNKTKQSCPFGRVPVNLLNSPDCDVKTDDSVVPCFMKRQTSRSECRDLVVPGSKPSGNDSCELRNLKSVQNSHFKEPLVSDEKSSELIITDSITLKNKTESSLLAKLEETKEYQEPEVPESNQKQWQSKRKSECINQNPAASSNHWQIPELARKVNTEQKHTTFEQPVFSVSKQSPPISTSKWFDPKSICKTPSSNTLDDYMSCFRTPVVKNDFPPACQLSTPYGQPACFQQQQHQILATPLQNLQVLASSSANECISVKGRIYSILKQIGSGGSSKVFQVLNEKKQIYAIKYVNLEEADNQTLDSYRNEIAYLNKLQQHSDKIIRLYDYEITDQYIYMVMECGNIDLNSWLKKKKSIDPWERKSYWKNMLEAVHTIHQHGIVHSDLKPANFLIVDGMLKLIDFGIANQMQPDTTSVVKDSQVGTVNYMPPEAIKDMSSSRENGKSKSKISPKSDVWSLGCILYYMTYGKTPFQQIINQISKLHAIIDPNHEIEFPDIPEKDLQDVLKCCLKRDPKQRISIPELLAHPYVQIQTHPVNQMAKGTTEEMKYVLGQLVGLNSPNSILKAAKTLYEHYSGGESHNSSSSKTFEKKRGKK
# Test Method Notes: biochemical
# Parameters: species or system HEK293/K-562/placenta mixed human extract; Kinobeads chemoproteomic competition binding, quantified by TMT LC-MS/MS, dose response up to 20 uM
Property Name: IC50

[Q] Looking for the measured IC50 of COc1ccccc1-c1n[nH]c2nc(N[C@H]3CC[C@H](NS(=O)(=O)CCC(F)(F)F)CC3)nc(OC)c12 [compound 31] , can you help?
[A] ≥ 20 µM

###

# Target: AURKA (Homo sapiens, UniProt O14965)
# Sequence (O14965 whole entry): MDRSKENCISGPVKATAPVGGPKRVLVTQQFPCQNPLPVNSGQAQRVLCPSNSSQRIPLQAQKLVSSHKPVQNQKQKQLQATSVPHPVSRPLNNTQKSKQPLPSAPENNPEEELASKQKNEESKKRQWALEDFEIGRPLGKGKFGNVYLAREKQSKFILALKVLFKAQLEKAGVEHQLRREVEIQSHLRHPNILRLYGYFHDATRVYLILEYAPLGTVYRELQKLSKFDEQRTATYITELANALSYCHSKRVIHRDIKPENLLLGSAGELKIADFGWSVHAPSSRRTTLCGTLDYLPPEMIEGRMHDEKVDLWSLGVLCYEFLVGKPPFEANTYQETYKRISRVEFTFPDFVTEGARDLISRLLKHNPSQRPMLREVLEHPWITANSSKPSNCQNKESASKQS
# Test Method Notes: biochemical
# Set-up: species or system HEK293/K-562/placenta mixed human extract; Kinobeads chemoproteomic competition binding, quantified by TMT LC-MS/MS, dose response up to 20 uM
Property Name: IC50

[Q] Looking for the measured IC50 of "COc1ccccc1-c1n[nH]c2nc(N[C@H]3CC[C@H](NS(=O)(=O)CCC(F)(F)F)CC3)nc(OC)c12" , can you help?
[A] ≥ 20 µM

###

# Target: SNRK (Homo sapiens)
# Sequence (Q9NRH2 whole entry): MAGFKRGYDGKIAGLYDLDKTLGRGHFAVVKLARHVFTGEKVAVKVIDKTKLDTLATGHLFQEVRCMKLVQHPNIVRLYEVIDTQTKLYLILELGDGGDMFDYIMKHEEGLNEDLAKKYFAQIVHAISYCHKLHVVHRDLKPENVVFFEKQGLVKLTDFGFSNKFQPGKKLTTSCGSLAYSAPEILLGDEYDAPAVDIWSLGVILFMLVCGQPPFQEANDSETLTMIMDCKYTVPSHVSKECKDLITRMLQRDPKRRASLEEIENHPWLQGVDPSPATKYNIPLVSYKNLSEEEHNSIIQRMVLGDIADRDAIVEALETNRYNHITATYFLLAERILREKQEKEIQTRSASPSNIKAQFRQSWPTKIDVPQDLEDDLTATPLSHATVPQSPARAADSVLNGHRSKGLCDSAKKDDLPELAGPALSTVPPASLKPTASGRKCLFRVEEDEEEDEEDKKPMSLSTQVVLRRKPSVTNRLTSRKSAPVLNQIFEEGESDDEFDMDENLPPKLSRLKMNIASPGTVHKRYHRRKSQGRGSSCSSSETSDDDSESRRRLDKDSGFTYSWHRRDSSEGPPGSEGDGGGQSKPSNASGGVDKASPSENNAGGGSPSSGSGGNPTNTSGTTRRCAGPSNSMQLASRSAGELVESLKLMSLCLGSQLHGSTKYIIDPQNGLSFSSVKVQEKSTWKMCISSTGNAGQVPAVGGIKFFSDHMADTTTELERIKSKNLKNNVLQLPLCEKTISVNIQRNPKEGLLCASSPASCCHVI
# Test Method Notes: biochemical
# Parameters: species or system HEK293/K-562/placenta mixed human extract; Kinobeads chemoproteomic competition binding, quantified by TMT LC-MS/MS, dose response up to 20 uM
Property Name: IC50

[Q] Tell me reported IC50 for "COc1ccccc1-c1n[nH]c2nc(N[C@H]3CC[C@H](NS(=O)(=O)CCC(F)(F)F)CC3)nc(OC)c12" , tested with SNRK (Homo sapiens).
[A] ≥ 20 µM
